Taken from PubChem BioAssay AID782.

- EXPERIMENTAL SYSTEM: Eukaryotic translation initiation factor 4E (Mus musculus) + Eukaryotic translation initiation factor 4 gamma 1 (Homo sapiens) (UniProt P63073+Q04637)
- Sequence (P63073 whole entry, looked up, the tested form may be a part): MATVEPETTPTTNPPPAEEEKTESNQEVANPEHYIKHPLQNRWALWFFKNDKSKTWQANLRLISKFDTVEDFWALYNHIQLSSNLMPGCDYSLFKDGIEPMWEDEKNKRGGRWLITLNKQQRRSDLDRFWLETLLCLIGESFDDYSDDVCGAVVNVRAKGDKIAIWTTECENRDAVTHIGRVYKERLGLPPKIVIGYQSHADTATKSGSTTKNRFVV
- Sequence (Q04637 whole entry, looked up, the tested form may be a part): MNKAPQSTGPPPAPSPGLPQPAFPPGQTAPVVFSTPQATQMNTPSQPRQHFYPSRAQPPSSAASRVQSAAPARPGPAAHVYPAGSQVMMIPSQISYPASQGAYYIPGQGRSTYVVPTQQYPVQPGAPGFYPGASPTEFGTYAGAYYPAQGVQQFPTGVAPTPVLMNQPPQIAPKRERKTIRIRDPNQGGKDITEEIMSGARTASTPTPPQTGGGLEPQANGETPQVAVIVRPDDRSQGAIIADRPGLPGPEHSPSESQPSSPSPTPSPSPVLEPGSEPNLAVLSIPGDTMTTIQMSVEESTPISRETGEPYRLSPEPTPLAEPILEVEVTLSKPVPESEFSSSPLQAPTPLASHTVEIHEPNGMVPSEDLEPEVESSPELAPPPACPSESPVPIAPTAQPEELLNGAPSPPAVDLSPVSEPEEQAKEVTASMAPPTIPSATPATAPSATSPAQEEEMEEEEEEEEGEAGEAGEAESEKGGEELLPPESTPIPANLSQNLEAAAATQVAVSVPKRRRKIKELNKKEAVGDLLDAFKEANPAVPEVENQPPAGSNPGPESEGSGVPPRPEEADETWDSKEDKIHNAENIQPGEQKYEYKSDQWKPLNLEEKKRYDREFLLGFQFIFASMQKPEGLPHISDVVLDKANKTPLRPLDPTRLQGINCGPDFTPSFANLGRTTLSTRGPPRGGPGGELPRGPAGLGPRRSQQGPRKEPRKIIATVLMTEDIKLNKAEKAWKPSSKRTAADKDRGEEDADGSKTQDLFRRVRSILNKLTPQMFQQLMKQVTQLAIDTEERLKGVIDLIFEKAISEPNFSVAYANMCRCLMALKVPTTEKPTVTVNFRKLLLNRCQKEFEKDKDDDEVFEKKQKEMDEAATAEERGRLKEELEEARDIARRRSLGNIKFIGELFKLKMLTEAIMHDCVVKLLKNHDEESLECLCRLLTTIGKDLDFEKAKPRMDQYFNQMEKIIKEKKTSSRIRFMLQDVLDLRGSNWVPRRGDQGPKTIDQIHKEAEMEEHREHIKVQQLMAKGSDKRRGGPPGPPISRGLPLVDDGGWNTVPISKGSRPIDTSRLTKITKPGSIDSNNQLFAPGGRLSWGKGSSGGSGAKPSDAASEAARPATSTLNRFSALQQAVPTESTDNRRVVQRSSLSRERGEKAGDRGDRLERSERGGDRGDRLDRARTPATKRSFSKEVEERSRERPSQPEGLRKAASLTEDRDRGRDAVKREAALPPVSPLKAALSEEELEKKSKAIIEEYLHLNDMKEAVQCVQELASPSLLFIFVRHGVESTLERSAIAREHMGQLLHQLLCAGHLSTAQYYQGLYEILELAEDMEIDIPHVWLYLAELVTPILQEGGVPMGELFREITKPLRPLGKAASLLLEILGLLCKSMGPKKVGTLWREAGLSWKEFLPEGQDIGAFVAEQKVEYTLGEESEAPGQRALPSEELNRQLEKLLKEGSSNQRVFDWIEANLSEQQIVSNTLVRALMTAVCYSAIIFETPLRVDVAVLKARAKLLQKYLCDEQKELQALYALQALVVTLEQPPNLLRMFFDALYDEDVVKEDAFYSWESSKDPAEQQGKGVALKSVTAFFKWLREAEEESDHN
- TEST: eIF4E–eIF4G protein interaction inhibitors, primary screen, biochemical, uHTS, TR-FRET, eIF4GI fragment (AID 782);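 note: 0% = full FRET control wells and 100% = background wells lacking eIF4GI fragment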
- COND: TR-FRET eIF4E-eIF4GI(517-606) binding, 2 h; at 21.7 µM; hits give high values
The whole screen tested about 220,000 compounds, of which about 800 (0.36%) were called active. What follows is part of a selection rich in actives, with near analogues and random picks from the rest.
RECORDED ENDPOINT: inhibition (%)
Please respond with the number in % and leave the unit unwritten.

### Prompt Reported inhibition, molecule `CC(C)(C)c1cc(C(=O)NN)n(Cc2ccc(Cl)cc2Cl)n1` : ____
### Response 3.29

### Prompt Reported inhibition, molecule Cc1ccc(N(C(=O)C(F)(F)F)C(C(=O)NC2CCCCC2)c2ccncc2)cc1C (stereo not given) : ____
### Response 4.58

### Prompt Reported inhibition, molecule `C=CCn1c(-c2ccccc2OCC)n[nH]c1=S` : ____
### Response -7.58

### Prompt Reported inhibition, molecule `COc1ccc(Cc2nnc(NC(=O)Cc3cccs3)s2)cc1` : ____
### Response 30.8

### Prompt Reported inhibition, molecule `CCOc1ccc(-n2cnc3c(=O)[nH]c(N)nc32)cc1` : ____
### Response -1.7

### Prompt Reported inhibition, molecule `Cc1cc(C)c2c(c1)cc(C)c1nnc(SCC(=O)Nc3cc(C)on3)n12` : ____
### Response 0.38

### Prompt Reported inhibition, molecule `CCSc1nc(C)c(CCOc2cccc(C)c2)c(=O)[nH]1` : ____
### Response -0.93

### Prompt Reported inhibition, molecule COc1ccc(OCC(O)CNCCNc2nccc(C(F)(F)F)n2)cc1 (stereo not given) : ____
### Response -1.2

### Prompt Reported inhibition, molecule `O=C(OCC(=O)c1c[nH]c2ccccc12)c1cccc(O)c1` : ____
### Response 49.4

### Prompt Reported inhibition, molecule `Brc1ccc(-c2noc(-c3ccccc3)n2)o1` : ____
### Response 3.6

### Prompt Reported inhibition, molecule `CCCn1nc(NS(=O)(=O)c2ccccc2)c2cc3cc(C)ccc3nc21` : ____
### Response 0.92

### Prompt Reported inhibition, molecule `C=CCn1c(-c2sc(-c3ccccc3)nc2C)n[nH]c1=S` : ____
### Response 3.95

### Prompt Reported inhibition, molecule COc1ccc(-n2c(C)cc(C(=O)CN3C(=O)NC4(CCc5ccccc54)C3=O)c2C)cc1 (stereo not given) : ____
### Response -11

### Prompt Reported inhibition, molecule `Cn1c(CNC(=O)c2ccccc2F)nnc1SCc1ccc(F)cc1` : ____
### Response 15.6

### Prompt Reported inhibition, molecule `CC1CCN(CC(=O)c2c[nH]c3ccccc23)CC1` : ____
### Response -20.8

### Prompt Reported inhibition, molecule `O=C(COC(=O)/C=C/c1ccc(S(=O)(=O)N2CCCCCC2)cc1)NCc1ccccc1Cl` : ____
### Response 2.41

### Prompt Reported inhibition, molecule `O=S(=O)(c1ccc(Cl)cc1)N1CCCN(c2ccc(C(F)(F)F)cn2)CC1` : ____
### Response 2.55

### Prompt Reported inhibition, molecule `CC(=O)Nc1cccc(/C(C)=N/NC(=O)c2c(-c3ccccc3Cl)noc2C)c1` : ____
### Response 1.91

### Prompt Reported inhibition, molecule `CSc1nc(C)nc(C2CC2)c1C#N` : ____
### Response -3.41

### Prompt Reported inhibition, molecule `CC(C)CNc1ncnc2c1cnn2Cc1ccc(Cl)cc1` : ____
### Response -0.57
